Below are IC50 values measured for PARP2 (Homo sapiens (Human)).
In your response, put the unit directly after the numeric value.

> print(dat)
                                   molecule                           tgt  reported.property  test.result
1  CNC(=O)c1ccc(N2CCN(Cc3cc4[nH]c(=O)c(C(F)(F)F)c(C)c4cn3)CC2)cn1 [Compound 2]  PARP2 (Homo sapiens (Human))               IC50       137 nM
2  CNC(=O)c1ccc(C2=CCN(Cc3cnc4c(C)c(C(F)(F)F)c(=O)[nH]c4c3)CC2)cn1 [Compound 14]  PARP2 (Homo sapiens (Human))               IC50       176 nM

Shifting focus to the molecule that follows.
Notebook: pull reported IC50 for PARP2 (Homo sapiens (Human)), entry CNC(=O)c1ccc(N2CCN(Cc3cnc4c(C)c(C(F)(F)F)c(=O)[nH]c4c3)CC2)cn1 [Compound 1]
164 nM

---

The following molecules are listed with their measured pIC50 values.
- TGT: PARP1 (Homo sapiens (Human), UniProt P09874)
- Sequence (P09874 whole entry): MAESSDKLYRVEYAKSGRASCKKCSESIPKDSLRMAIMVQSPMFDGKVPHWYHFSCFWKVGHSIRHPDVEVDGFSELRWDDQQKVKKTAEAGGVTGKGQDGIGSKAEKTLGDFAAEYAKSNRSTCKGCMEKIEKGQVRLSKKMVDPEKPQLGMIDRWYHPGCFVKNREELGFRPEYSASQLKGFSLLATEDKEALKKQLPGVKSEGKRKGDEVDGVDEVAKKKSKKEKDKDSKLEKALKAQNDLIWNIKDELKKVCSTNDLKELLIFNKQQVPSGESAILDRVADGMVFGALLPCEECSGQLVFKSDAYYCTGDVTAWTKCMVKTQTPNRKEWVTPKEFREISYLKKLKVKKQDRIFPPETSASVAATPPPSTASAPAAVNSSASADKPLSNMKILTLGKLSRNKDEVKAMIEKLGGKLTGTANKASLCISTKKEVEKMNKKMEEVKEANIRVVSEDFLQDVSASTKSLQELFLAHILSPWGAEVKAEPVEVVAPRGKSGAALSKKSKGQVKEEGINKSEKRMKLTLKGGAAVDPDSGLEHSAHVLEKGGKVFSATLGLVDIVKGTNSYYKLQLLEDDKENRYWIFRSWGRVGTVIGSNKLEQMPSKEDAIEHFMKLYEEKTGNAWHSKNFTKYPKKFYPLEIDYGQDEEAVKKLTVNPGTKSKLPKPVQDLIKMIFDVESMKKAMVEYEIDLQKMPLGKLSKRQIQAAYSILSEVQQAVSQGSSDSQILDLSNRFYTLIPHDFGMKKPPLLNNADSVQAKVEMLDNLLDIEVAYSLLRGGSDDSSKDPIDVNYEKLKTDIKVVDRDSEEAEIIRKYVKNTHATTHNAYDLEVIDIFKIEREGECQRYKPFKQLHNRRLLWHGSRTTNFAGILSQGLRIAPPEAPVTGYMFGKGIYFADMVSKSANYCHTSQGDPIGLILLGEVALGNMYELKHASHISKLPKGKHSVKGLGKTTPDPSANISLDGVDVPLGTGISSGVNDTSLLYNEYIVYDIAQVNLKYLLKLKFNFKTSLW
- PROTOCOL DETAILS: PARP1 trapping assay
- Format: biochemical
- MEASUREMENT SETUP: read-out: Inhibitory Effect on PARP1 Trapping IC50
# log scale: pIC50 equals minus log10 of the concentration in mol/L

I would be grateful if you could share the reported pIC50 for CNC(=O)c1ccc(N2CCN(Cc3cc4[nH]c(=O)c(C(F)(F)F)c(C)c4cn3)C[C@H]2C)cn1 [Compound 88] .
8.81

---

- PROTOCOL DETAILS: Evaluation of pharmacokinetics in rats
- Type: in vivo
- MEASUREMENT SETUP: male, SD, rat, plasma, 1 mg/kg, oral gavage (PO, 1 mpk)
- Text: Test Animals: 6-8 Week Old Male SD Rats Food was restored two hours after dosing.
// returns NO unless half-life is strictly below 6 h, in which case YES

Worked cases, answers included:
> print(dat)
                                   molecule  assigned.category
1  CNC(=O)c1ccc(N2CCN(Cc3cnc4c(C)c(C(F)(F)F)c(=O)[nH]c4c3)[C@@H](C)C2)cn1 [Compound 52]                YES
2  CCc1cc2ncc(CN3CCN(c4ccc(C(=O)NC)nc4)CC3)cc2[nH]c1=O [AZD5305, reference compound]                YES
3  CNC(=O)c1ccc(N2CCN(Cc3cnc4c(C)c(C(F)(F)F)c(=O)[nH]c4c3)CC2)cn1 [Compound 1]                YES
4  CNC(=O)c1ccc(N2CCN(Cc3cnc4c(C)c(C(F)(F)F)c(=O)[nH]c4c3)C[C@H]2C)cn1 [Compound 54]                 NO
5  CNC(=O)c1ccc(C2=CCN(Cc3cnc4c(C)c(C(F)(F)F)c(=O)[nH]c4c3)CC2)cn1 [Compound 14]                 NO

Could you now look at the following molecule, please?
Say whether its half-life is strictly beneath 6 h. Entry: CNC(=O)c1ccc(N2CCN(Cc3cc4[nH]c(=O)c(C(F)(F)F)c(C)c4cn3)CC2)cn1 [Compound 2]
YES

---

The following compounds are listed with their measured IC50 values.
- TGT: UniProt:P09874
- PROTOCOL DETAILS: PARP enzyme activity assay (PARP1 chemiluminescent assay kit)
- Type: biochemical
- MEASUREMENT SETUP: enzyme inhibitory activity, read-out: PARP-1 IC50
Use nM as the unit, but write only the number.

> print(dat)
                                   compound  reported.property  unit.symbol  test.result
1  CNC(=O)c1ccc(N2CCN(Cc3cnc4c(C)c(C(F)(F)F)c(=O)[nH]c4c3)CC2)cn1               IC50           nM         2.78
2  CNC(=O)c1ccc(N2CCN(Cc3cnc4c(C)c(C(F)(F)F)c(=O)[nH]c4c3)C(CCO)C2)cn1 (stereo not shown)               IC50           nM         27.2

Shifting focus to the compound that follows.
I would be grateful if you could share the reported IC50 for CNC(=O)c1ccc(N2CCN(Cc3cnc4c(C)c(C(F)(F)F)c(=O)[nH]c4c3)C(C)C2)cn1 (stereo not shown) .
0.96

---

- PROTOCOL DETAILS: Evaluation of pharmacokinetics in mice
- MEASUREMENT SETUP: male, ICR (CD1), mouse, plasma, po, 10 mg/kg
REPORTED PROPERTY: Cmax (µg/mL)
Use µg/mL as the unit, but write only the number.

Examples with answers:
> print(dat)
                                   compound  reported.property  test.result
1  CNC(=O)c1ccc(N2CCN(Cc3cnc4c(C)c(C(F)(F)F)c(=O)[nH]c4c3)CC2)cn1 [Compound 1]               Cmax         39.6
2  CNC(=O)c1ccc(N2CCN([C@H](C)c3cnc4c(C)c(C(F)(F)F)c(=O)[nH]c4c3)CC2)cn1 [Compound 90]               Cmax         49.9
3  CNC(=O)c1ccc(N2CCN(Cc3cnc4c(C)c(C(F)(F)F)c(=O)[nH]c4c3)[C@@H](C)C2)cn1 [Compound 52]               Cmax         50.2

I would be grateful if you could share the reported Cmax for CNC(=O)c1ccc(C2=CCN(Cc3cnc4c(C)c(C(F)(F)F)c(=O)[nH]c4c3)CC2)cn1 [Compound 14] .
128

---

The following compounds are listed with their measured IC50 values.
- TGT: PARP1 (Homo sapiens (Human), UniProt P09874)
- PROTOCOL DETAILS: PARP1 trapping assay
- Type: biochemical
- MEASUREMENT SETUP: read-out: Inhibitory Effect on PARP1 Trapping IC50
Use nM as the unit, but write only the number.

Examples with answers:
> print(dat)
                                   compound  unit.symbol  test.result
1  CNC(=O)c1ccc(C2=CCN(Cc3cnc4c(C)c(C(F)(F)F)c(=O)[nH]c4c3)CC2)cn1 [Compound 14]           nM         1.38
2  CNC(=O)c1ccc(N2CCN(Cc3cnc4c(C)c(C(F)F)c(=O)[nH]c4c3)CC2)cn1 [Compound 100]           nM         2.58
3  CNC(=O)c1ccc(N2CCN([C@H](C)c3cnc4c(C)c(C(F)(F)F)c(=O)[nH]c4c3)CC2)cn1 [Compound 90]           nM         4.33
4  CNC(=O)c1ccc(N2CCN(Cc3cnc4c(C)c(C(F)(F)F)c(=O)[nH]c4c3)CC2)cn1 [Compound 1]           nM         1.33
5  CNC(=O)c1ccc(N2CCN([C@@H](C)c3cnc4c(C)c(C(F)(F)F)c(=O)[nH]c4c3)CC2)cn1 [Compound 91]           nM          2.9
6  CNC(=O)c1ccc(N2CCN(Cc3cc4[nH]c(=O)c(C(F)(F)F)c(C)c4cn3)[C@H](C)C2)cn1 [Compound 87]           nM         2.57
7  CNC(=O)c1ccc(N2CCN(Cc3cc4[nH]c(=O)c(C(F)(F)F)c(C)c4cn3)CC2)cn1 [Compound 2]           nM         1.22

Shifting focus to the compound that follows.
I would be grateful if you could share the reported IC50 for CNC(=O)c1ccc(N2CCN(Cc3cnc4c(C)c(C(F)(F)F)c(=O)[nH]c4c3)C[C@H]2C)cn1 [Compound 54] .
1.31

---

- TGT: PARP1 (Homo sapiens (Human))
- PROTOCOL DETAILS: PARP enzyme activity assay (PARP1 chemiluminescent assay kit)
- Type: biochemical
- MEASUREMENT SETUP: enzyme inhibitory activity, read-out: PARP-1 IC50
The following compounds are listed with their measured IC50 values.
In your response, put the unit directly after the numeric value.

> print(dat)
                                   compound                           tgt  test.result
1  Cc1c(C(F)(F)F)c(=O)[nH]c2cc(CN3CCN(c4ccc5[nH]c(=O)[nH]c5n4)CC3)cnc12  PARP1 (Homo sapiens (Human))      15.9 nM
2  CNC(=O)c1ccc(N2CCN(Cc3cnc4c(C)c(C(F)(F)F)c(=O)[nH]c4c3)C(COC)C2)cn1 (stereo not shown)  PARP1 (Homo sapiens (Human))      2.55 nM
3  CNC(=O)c1ccc(N2CCN(Cc3cc4[nH]c(=O)c(C(F)(F)F)c(C)c4cn3)CC2)cn1  PARP1 (Homo sapiens (Human))      3.14 nM

Shifting focus to the compound that follows.
I would be grateful if you could share the reported IC50 for `CNC(=O)c1ccc(N2CC3CCC(C2)N3Cc2cnc3c(C)c(C(F)(F)F)c(=O)[nH]c3c2)cn1` .
2.25 nM

Where do these numbers come from? They come from patent US20250051324A1.
